# assayTarget: Peroxisome proliferator-activated receptor gamma (Homo sapiens, UniProt P37231)
# Sequence (P37231 whole entry): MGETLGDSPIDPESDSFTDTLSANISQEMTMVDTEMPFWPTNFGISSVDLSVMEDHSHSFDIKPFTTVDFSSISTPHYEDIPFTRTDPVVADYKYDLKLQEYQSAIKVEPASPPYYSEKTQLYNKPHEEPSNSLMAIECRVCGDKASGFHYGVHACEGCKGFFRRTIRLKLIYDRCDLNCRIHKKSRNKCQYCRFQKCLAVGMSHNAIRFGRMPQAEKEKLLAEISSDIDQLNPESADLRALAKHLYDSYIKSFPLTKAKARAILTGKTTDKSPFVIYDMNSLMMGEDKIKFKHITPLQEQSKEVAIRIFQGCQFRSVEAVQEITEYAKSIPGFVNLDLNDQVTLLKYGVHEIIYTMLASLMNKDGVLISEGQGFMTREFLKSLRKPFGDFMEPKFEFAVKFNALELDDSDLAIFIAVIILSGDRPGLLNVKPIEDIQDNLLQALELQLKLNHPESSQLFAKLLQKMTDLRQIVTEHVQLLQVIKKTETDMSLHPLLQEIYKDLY
quantityMeasured: Ki

Some entries whose results are on file:
{"columns": ["compound", "Ki"],
 "data": [
  ["CCCCCOc1ncccc1C(O)CCCCCCC(=O)O (stereo unspecified)", "> 10 µM"],
  ["CCCCCOc1ncccc1C(O)CC#CCCCC(=O)OC (stereo unspecified)", "> 10 µM"],
  ["CCCCCOc1ncccc1C(O)C/C=C/CCCC(=O)OC (stereo unspecified)", "> 10 µM"],
  ["CCCCCOc1cc2ccccc2cc1C(O)CC#CCCCC(=O)OC (stereo unspecified)", "0.695 µM"],
  ["CCCCCOc1nc2ccccc2cc1C(O)CC=CCCCC(=O)O (stereo unspecified)", "> 10 µM"],
  ["CCCCCOc1nc2ccccc2cc1C(O)CC#CCCCC(=O)OC (stereo unspecified)", "> 10 µM"]
]}

Consider the compound CCCCCOc1cc2ccccc2cc1C(O)CCCCCCCC(=O)OC (stereo unspecified) and give its recorded Ki.
0.579 µM

Consider the compound CCCCCOc1ncccc1C(O)CC#CCCCC(=O)O (stereo unspecified) and give its recorded Ki.
> 10 µM

Consider the compound CCCCCOc1ccccc1C(O)CC=CCCCC(=O)O (stereo unspecified) and give its recorded Ki.
> 10 µM

Consider the compound CCCCCOc1ccccc1C(O)CC#CCCCC(=O)O (stereo unspecified) and give its recorded Ki.
> 10 µM

Consider the compound CCCCCOc1ncccc1C(O)CCCCCCC(=O)OC (stereo unspecified) and give its recorded Ki.
> 10 µM
